Listing: koff of selected binders
Target: T1, His-tagged human HtrA1 protease domain (human, UniProt Q92743 161-367)
T1 construct: His-tagged protease domain; also called huHtrA1-PD-His; huHtrA1-PD
T1 sequence (Q92743 other isoform, or with tags, fused parts or gaps limits assumed): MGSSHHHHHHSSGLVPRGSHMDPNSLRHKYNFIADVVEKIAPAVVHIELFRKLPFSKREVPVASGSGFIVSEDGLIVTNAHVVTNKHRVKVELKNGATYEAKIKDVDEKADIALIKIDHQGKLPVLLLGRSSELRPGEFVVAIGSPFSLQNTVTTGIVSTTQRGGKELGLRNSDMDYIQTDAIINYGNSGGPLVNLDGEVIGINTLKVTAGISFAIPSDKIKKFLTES
Assay: SPR (BIACORE T200), huHtrA1-PD-His captured by anti-His, Fab injected
Return type: number; implicit unit s⁻¹.

I have this binder here, combination mutant LC7.HC2 Fab (Fab, V domains shown, Fab) VH: EVQLVQSGAEVKKPGASVKVSCKASGYTFRDSEMHWVRQAPGQGLEWIGGVDPETDGAAYNQKFKGRATITRDTSTSTAYLELSSLRSEDTAVYYCTRGYDYDYALDYWGQGTLVTVSS VL: DIQMTQSPSSLSASVGDRVTITCRASSSVNFIHWYQQKPGKAPKPLISATSNLASGVPSRFSGSGSGTDFTLTISSLQPEDFATYYCQQWYSNPWTFGQGTKVEIK , and I need its recorded koff.
0.000189

Look up koff: h15H6.v2 variant LC7 (LC-S92Y) Fab (Fab, V domains shown, Fab-Flag tag fusion from 293T cells) VH: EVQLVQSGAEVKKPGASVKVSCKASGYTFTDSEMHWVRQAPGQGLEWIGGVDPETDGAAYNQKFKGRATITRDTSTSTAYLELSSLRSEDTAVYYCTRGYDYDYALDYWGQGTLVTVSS VL: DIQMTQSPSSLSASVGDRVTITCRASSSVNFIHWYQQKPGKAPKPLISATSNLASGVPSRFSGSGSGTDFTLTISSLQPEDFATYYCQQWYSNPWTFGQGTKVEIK
0.000188

Name the recorded koff for combination mutant LC7.HC3 Fab (Fab, V domains shown, Fab) VH: EVQLVQSGAEVKKPGASVKVSCKASGYKFTDSEMHWVRQAPGQGLEWIGGVDPETDGAAYNQKFKGRATITRDTSTSTAYLELSSLRSEDTAVYYCTRGYDYDYALDYWGQGTLVTVSS VL: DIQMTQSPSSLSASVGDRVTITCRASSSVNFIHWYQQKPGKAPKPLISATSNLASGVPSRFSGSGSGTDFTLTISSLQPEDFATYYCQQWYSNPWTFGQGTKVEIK .
0.000237

For the binder shown here, combination mutant LC5.HC5 Fab (Fab, V domains shown, Fab) VH: EVQLVQSGAEVKKPGASVKVSCKASGYTFTDSELHWVRQAPGQGLEWIGGVDPETDGAAYNQKFKGRATITRDTSTSTAYLELSSLRSEDTAVYYCTRGYDYDYALDYWGQGTLVTVSS VL: DIQMTQSPSSLSASVGDRVTITCRASSSVNFIHWYQQKPGKAPKPLISATSELASGVPSRFSGSGSGTDFTLTISSLQPEDFATYYCQQWSSNPWTFGQGTKVEIK , give the reported koff.
0.000296

So what's the measured koff for this one? h15H6.v2 variant LC3 (LC-N31E) Fab (Fab, V domains shown, Fab-Flag tag fusion from 293T cells) VH: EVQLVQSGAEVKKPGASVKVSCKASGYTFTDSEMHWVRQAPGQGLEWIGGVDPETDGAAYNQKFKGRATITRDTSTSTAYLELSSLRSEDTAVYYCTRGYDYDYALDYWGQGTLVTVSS VL: DIQMTQSPSSLSASVGDRVTITCRASSSVEFIHWYQQKPGKAPKPLISATSNLASGVPSRFSGSGSGTDFTLTISSLQPEDFATYYCQQWSSNPWTFGQGTKVEIK
0.000115

All values here come from patent US20170145113A1.
